target: T1, HLA-A*0201 on T2 cells (human); assay: T2 cell binding assay, flow cytometry
T1 construct: whole, on cells; also called HLA-A2
Square brackets hold non-standard residues; d marks the D form. Ends that are not written are not given here. Phg = N[C@H](C(=O)O)c1ccccc1; Nva = CCC[C@H](N)C(=O)O
Doc: threshold 4 µM (exclusive). Items with EC50 beneath it return Y; others return N.

Completed entries (count: 4):
| BINDER | LABEL |
| --- | --- |
| FVSEKIFSV [SSX2 41-49 (K41F, A42V, Y48S)] | Y |
| FVSDKIFYV [SSX2 41-49 (K41F, A42V, E44D)] | N |
| FVSEKLFTV [SSX2 41-49 (K41F, A42V, I46L, Y48T)] | N |
| FVSEKIF[Phg]V (also called FVSEKIF(Phg)V) [SSX2 41-49 (K41F, A42V, Y48Phg)] | N |

Task: Check if EC50 falls below 4 µM for FVSEKIFFV [SSX2 41-49 (K41F, A42V, Y48F)] .
Result: N

Task: Check if EC50 falls below 4 µM for FVSQKIFYV [SSX2 41-49 (K41F, A42V, E44Q)] .
Result: N

Task: Check if EC50 falls below 4 µM for FVS[Nva]KIFYV (also called FVS(Nva)KIFYV) [SSX2 41-49 (K41F, A42V, E44Nva)] .
Result: Y
